biological target: Env of MuLV; assay: cell-based or functional assay
MEASUREMENT LABEL: neutralization IC50

γ3κ18 (antibody, V domains shown) VH: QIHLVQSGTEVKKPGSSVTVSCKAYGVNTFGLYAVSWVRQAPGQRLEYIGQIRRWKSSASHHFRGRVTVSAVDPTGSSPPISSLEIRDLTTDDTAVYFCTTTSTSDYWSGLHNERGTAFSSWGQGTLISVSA VL: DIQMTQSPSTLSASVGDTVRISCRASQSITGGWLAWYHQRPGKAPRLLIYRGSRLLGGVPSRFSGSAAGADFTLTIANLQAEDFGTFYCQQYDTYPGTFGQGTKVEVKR ... > 30 µg/mL
γ23κ5 (antibody, V domains shown) VH: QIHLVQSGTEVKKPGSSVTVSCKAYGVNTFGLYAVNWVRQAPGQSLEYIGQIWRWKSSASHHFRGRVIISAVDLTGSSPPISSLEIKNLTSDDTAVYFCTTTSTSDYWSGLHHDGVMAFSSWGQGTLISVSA VL: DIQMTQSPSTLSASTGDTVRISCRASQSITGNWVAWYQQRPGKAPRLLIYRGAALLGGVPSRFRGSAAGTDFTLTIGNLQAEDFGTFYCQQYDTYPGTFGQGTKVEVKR ... > 30 µg/mL

Recorded values, source patent US20180171001A1.
